Provenance of the data: the supplement of paper PMC10567573

B1: CCND1 (parent)
chain: IRRAYPDANLLNDRVLRAMLKAEE

# Variants of: B1
# Protocol details: protein stability index of a GFP-peptide fusion (GPS, HEK-293T) (PSI 1-6); higher = more stable;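 further: lentivirally expressed fusions sorted by FACS into six bins by GFP to DsRed ratio, PSI derived from sequencing read proportions per bin multiplied by bin number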
# Study conditions: c terminus: a fixed tail appended
Catalogue of protein stability index values
Result type: protein stability index

| Alteration | Result value |
| --- | --- |
| L20I | 3.55 |
| D13R | 3.68 |
| A4R | 2.37 |
| L10D | 3.97 |
| D13L | 2.02 |
| R2D | 4.09 |
| V15H | 4.36 |
| L10W | 2.02 |
| L16A | 3.43 |
| K21S | 2.72 |
| L16E | 4.28 |
| E23C | 1.92 |
| K21R | 2.79 |
| P6I | 2.21 |
| L20R | 3.03 |
| N9G | 2.34 |
| N12D | 2.87 |
| D13A | 2.28 |
| D13M | 2.66 |
| M19E | 3 |
| R14A | 2.3 |
| L11D | 4.19 |
| A22N | 2.86 |
| L16P | 4.08 |
| L10F | 2.52 |
| D7W | 2.36 |
| R3Q | 3.62 |
| R17Q | 2.68 |
| A18C | 2.33 |
| L11K | 3.33 |
| A4P | 3.12 |
| M19Q | 3.52 |
| L20D | 4.05 |
| L10N | 3.58 |
| Y5A | 3.33 |
| L11P | 2.48 |
| R3G | 3.44 |
| I1R | 2.21 |
| A22W | 2.74 |
| A4K | 2.3 |
| N9Y | 2.11 |
| R2Q | 3.03 |
| R3E | 3.72 |
| L10T | 3.13 |
| A18Q | 3.94 |
| L11W | 2.02 |
| D13T | 2.52 |
| P6A | 1.75 |
| M19V | 3.61 |
| L11G | 2.84 |
| Y5C | 2.9 |
| V15T | 3.33 |
| I1A | 2.77 |
| A22P | 3.69 |
| A22L | 1.78 |
| A18S | 3.66 |
| A4E | 2.04 |
| A18T | 3.58 |
| A8V | 3.02 |
| E23N | 2.18 |
| M19N | 4.92 |
| A4N | 2.59 |
| A4H | 2.4 |
| A8C | 2.78 |
| R17H | 2.31 |
| D13P | 2.61 |
| R2P | 3.68 |
| D13W | 2.35 |
| A18M | 1.8 |
| A22D | 2.73 |
| E23W | 1.84 |
| R14C | 2.41 |
| R14G | 1.96 |
| K21Q | 1.89 |
| A8K | 2.53 |
| P6L | 2.42 |
| A18H | 3.17 |
| L20G | 4.01 |
| R17V | 1.72 |
| V15L | 1.9 |
| E24C | 2.08 |
| M19D | 4.26 |
| A8Y | 2.4 |
| V15Q | 4.11 |
| N9T | 2.63 |
| R14M | 2.81 |
| N12H | 2.5 |
| D7N | 3.11 |
| A22T | 2.8 |
| E23V | 1.8 |
| R17L | 3.01 |
